Listing: pIC50 of selected compounds
Target: Acid-sensing ion channel 3 (Homo sapiens, UniProt Q9UHC3)
Sequence (Q9UHC3 whole entry): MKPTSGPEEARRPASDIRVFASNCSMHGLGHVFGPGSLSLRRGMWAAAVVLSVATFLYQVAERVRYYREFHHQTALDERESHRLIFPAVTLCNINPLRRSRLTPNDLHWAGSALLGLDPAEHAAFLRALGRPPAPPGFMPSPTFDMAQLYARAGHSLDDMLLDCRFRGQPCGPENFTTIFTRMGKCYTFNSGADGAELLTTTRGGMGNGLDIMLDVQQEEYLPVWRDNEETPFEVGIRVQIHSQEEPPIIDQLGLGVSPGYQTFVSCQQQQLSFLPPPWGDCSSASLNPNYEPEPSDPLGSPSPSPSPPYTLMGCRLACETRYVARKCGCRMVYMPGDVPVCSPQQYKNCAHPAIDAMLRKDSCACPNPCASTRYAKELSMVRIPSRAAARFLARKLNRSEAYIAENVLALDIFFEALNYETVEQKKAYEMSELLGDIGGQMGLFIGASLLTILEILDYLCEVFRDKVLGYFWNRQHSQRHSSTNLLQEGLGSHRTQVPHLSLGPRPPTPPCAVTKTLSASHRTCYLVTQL
Assay: Inhibition of ASIC3 assessed as inhibition of peak current by patch clamp electrophysiology
pIC50: −log10 of the molar value.

{"COMPOUND": "NC(N)=NC(=O)c1ncc(-c2cccc(-c3ccccc3)c2)nc1N", "pIC50": 6.31}
{"COMPOUND": "N=C(N)NC(=O)c1nc(Cl)c(N)nc1N [AMILORIDE]", "pIC50": 5.36}
{"COMPOUND": "N=C(N)NC(=O)c1ncc(-c2cccc(-c3ccsc3)c2)nc1N", "pIC50": 6.19}
{"COMPOUND": "NC(N)=NC(=O)c1nc(Cl)c(Nc2ccc3ccccc3c2)nc1N", "pIC50": 6.29}
